Experiment: acute toxicity after oral administration (Litchfield and Wilcoxon)
Format: in vivo
Conditions: mouse, in vivo, Swiss mice
Reported LD50 values follow for various compounds

# COMPOUND, LD50, mg/kg
rows = [
    ("NCC(=O)Nc1ccncc1 [MR-3066, glycyl-p-amino-pyridine monoacetate]", 29),
    ("Nc1ccncc1 [4-aminopyridine, reference compound]", 12),
]

====

Reported TD50 values follow for various compounds
Test: acute convulsant activity after oral administration (Litchfield and Wilcoxon)
Type: in vivo
Details: mouse, in vivo, Swiss male mice, read-out: CD50 (Convulsant Doses 50)

# COMPOUND, TD50
rows = [
    ("Nc1ccncc1 [4-aminopyridine, reference compound]", "5 mg/kg"),
    ("NCC(=O)Nc1ccncc1 [MR-3066, glycyl-p-amino-pyridine monoacetate]", "19 mg/kg"),
]

Reference source for all entries: patent US5244897A
